These measurements were taken from patent EP4745156A1.

system-under-test: His-tagged canine IL-31 (interleukin 31) recombinant protein (canine)
measurement-notes: cell-based or functional assay
So I've got a bunch of binders here, and I need their pSTAT IC50 (µg/mL) values.
Provide the reading as a plain figure in µg/mL.

Can you share its pSTAT IC50 (µg/mL)? I mean this binder: 7475-H3K3-canIgGB (antibody, V domains shown) VH: EVQLVESGGDLVKPGGSLRLSCVASGFTFSSYAMSWVRQAPGKGLQWVARISNGGDYIFYADTVKGRFTISRDNAKNTLYLQMNSLRAEDTAMYYCTRRGHYNTSSYWYFDVWGQGTLVTVSS VL: EIVMTQSPASLSLSQEEKVTITCKASENVGTYVSWYQQKPGQAPKLLIYGASNRYTGVPSRFSGSGSGTDFSFTISSLEPEDVAVYYCGQSYSYPPTFGAGTKVELKR 6.9

Can you share its pSTAT IC50 (µg/mL)? I mean this binder: B2-H3K1-canIgGB (antibody, V domains shown) VH: EVQLVESGGDLVKPGGSLRLSCVASGFTFSDAWMDWVRQAPGKGLQWVAEIRSRAESHATYYAESVKGRFTISRDDAKNTVYLQMNSLRAEDTAVYYCTPASTMITTGWFAYWGQGTLVTVSS VL: EIVMTQTPLSLAVTPGELATISCRASQNISVYLHWYLQKPGQTPRVLIKYVSQSISGVSDRFSGSGSGSDFTLKISRVEAEDVGVYYCQNGHSFPYTFGQGTKLEIKR 8.5

Can you share its pSTAT IC50 (µg/mL)? I mean this binder: 6465-H2K2-canIgGB (antibody, V domains shown) VH: EVQLVESGGDLVKPGGSLRLSCVASGYSFTNYYLYWVRQAPGKGLQWLGELNPRNGGTNLNAKFKTRFTISVDKAKNTAYLQMNSLRAEDTAVYYCTRGGTTVVVRDVMDFWGQGTLVTVSS VL: DIVLTQTPLSLSVSPGEPASISCRASESVDSYGNSFMHWYRQKPGQSPQLLIYRASNLESGVPDRFSGSGSRTDFTLRISRVEADDAGVYYCQQSNEDPYTFGQGTKLEIKR 7.3
